# ASSAYED SYSTEM: UniProt Q16790
OBSERVABLE: Ki (nM)

P: Cc1ccccc1N1C(=O)c2cc(S(N)(=O)=O)c(Cl)cc2NC1C (stereo not given)
Q: CCCCNc1cc(C(=O)O)cc(S(N)(=O)=O)c1Oc1ccccc1
// query I'm curious whether P or Q has the smaller Ki number. Which is it? Record your answer as the label of the chosen record.
// result Q

====

Reported values: Ki for Carbonic anhydrase 3 (Homo sapiens) (UniProt P07451), one per item.

# annotated cases, reported Ki shown
NS(=O)(=O)c1cc(C(=O)O)c(NCc2ccco2)cc1Cl    > 2 10^5nM
CC(=O)/N=c1/sc(S(N)(=O)=O)nn1C    > 2 10^5nM
CC1Nc2cc(C(F)(F)F)c(S(N)(=O)=O)cc2S(=O)(=O)N1C (stereo unspecified)    > 2 10^5nM
CC1Nc2cc(Cl)c(S(N)(=O)=O)cc2S(=O)(=O)N1C (stereo unspecified)    > 2 10^5nM
Cc1ccccc1N1C(=O)c2cc(S(N)(=O)=O)c(Cl)cc2NC1C (stereo unspecified)    > 2 10^5nM

Then there is this molecule:
// query Return Ki measured with Carbonic anhydrase 3 (Homo sapiens) (UniProt P07451) given this molecule: CCCCNc1cc(C(=O)O)cc(S(N)(=O)=O)c1Oc1ccccc1
Sequence (P07451 whole entry): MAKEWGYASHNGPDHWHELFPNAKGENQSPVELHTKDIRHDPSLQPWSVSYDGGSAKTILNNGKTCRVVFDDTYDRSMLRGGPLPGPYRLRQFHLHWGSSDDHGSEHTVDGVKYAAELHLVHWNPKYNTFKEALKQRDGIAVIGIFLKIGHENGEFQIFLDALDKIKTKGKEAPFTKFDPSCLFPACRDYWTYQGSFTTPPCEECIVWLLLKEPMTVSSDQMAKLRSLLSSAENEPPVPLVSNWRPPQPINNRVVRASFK
// result > 2 10^5nM
